molecular target: OEP21ΔL5 (Pisum sativum, UniProt Q9SM57, DEL70-80); construct: made in house; host or cells: Escherichia coli BL21(DE3) (described for OEP21); assay: NMR titrations of OEP21ΔL5 with metabolites; type: binding, garden pea; conditions: KDs dLoop + GAP, Mean, dLoop (OEP21ΔL5); mean; unit inferred
measurement_type: Kd (µM)

[
  {
    "molecule": "O=C[C@H](O)COP(=O)(O)O [GAP, D-glyceraldehyde-3-phosphate]",
    "measurement_type": "Kd",
    "reading": 730
  }
]

###

biological target: OEP21 wt (Pisum sativum); construct: made in house; assay: NMR titrations (2D-[15N,1H]-TROSY) of OEP21 with metabolites; format: binding, garden pea; settings: KDs OEP21wt + GAP, Mean, OEP21wt; mean; unit inferred
measurement_type: Kd (µM)

[
  {
    "molecule": "O=C[C@H](O)COP(=O)(O)O [GAP, D-glyceraldehyde-3-phosphate]",
    "measurement_type": "Kd",
    "reading": 152
  }
]

###

molecular target: OEP21 (Pisum sativum, UniProt Q9SM57); assay: Isothermal titration calorimetry (ITC) of OEP21 with metabolites; assay type: binding, garden pea; parameters: made in house; conditions: mean; relative to ATP pH7
Criterion: fold increase in Kd, mean values strictly under 0.6. Met: T. Not met: F.

[
  {
    "record_smiles": "Nc1ccn([C@@H]2O[C@H](COP(=O)(O)OP(=O)(O)OP(=O)(O)O)[C@@H](O)[C@H]2O)c(=O)n1",
    "class_assignment": "F"
  },
  {
    "record_smiles": "O=c1ccn([C@@H]2O[C@H](COP(=O)(O)OP(=O)(O)OP(=O)(O)O)[C@@H](O)[C@H]2O)c(=O)[nH]1",
    "class_assignment": "F"
  },
  {
    "record_smiles": "Nc1ncnc2c1ncn2[C@@H]1O[C@H](COP(=O)(O)OP(=O)(O)O)[C@@H](O)[C@H]1O",
    "class_assignment": "F"
  },
  {
    "record_smiles": "Nc1ncnc2c1ncn2[C@@H]1O[C@H](COP(=O)(O)O)[C@@H](O)[C@H]1O",
    "class_assignment": "T"
  }
]

###

biological target: OEP21 wt (Pisum sativum); construct: made in house; assay: FP competition with preformed MANT-ATP/OEP21-WT complex; assay type: binding, garden pea; conditions: read-out: IC50 (dissociation of MANT-ATP); OEP21-WT; 1 µM MANT-ATP, 1 µM protein

[
  {
    "compound": "O=P(O)(O)O [Phosphate]",
    "IC50": "~10 mM"
  }
]

###

We begin with a simple list: items and their reported Relative content (% of mean Control).
target: OEP21 wt (Pisum sativum, UniProt Q9SM57); construct: made in house; test: SEC metabolite translocation assay with OEP21 WT proteoliposomes;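 note: control is liposomes reconstituted without protein, prepared alongside. Molecule content inside liposomes measured after Triton X-100 disruption. PD10 SEC runs done with or without ATP and/or MgCl2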; assay type: biochemical, garden pea; details: Fig. 4f; WT proteoliposomes; molecules of increasing molecular weight; Mean

[
  {
    "compound": "O=P(O)(O)O [Phosphate]",
    "Relative content (% of mean Control)": "13.1637 % of mean Control"
  },
  {
    "compound": "NC(=O)C1=CN([C@@H]2O[C@H](COP(=O)(O)OP(=O)(O)OC[C@H]3O[C@@H](n4cnc5c(N)ncnc54)[C@H](O)[C@@H]3O)[C@@H](O)[C@H]2O)C=CC1",
    "Relative content (% of mean Control)": "33.6575 % of mean Control"
  },
  {
    "compound": "NC(=O)C1=CN([C@@H]2O[C@H](COP(=O)(O)OP(=O)(O)OC[C@H]3O[C@@H](n4cnc5c(N)ncnc54)[C@H](OP(=O)(O)O)[C@@H]3O)[C@@H](O)[C@H]2O)C=CC1",
    "Relative content (% of mean Control)": "30.937 % of mean Control"
  },
  {
    "compound": "O=S1(=O)OC(c2cc(Br)c(O)c(Br)c2)(c2cc(Br)c(O)c(Br)c2)c2ccccc21 [Bromophenol Blue, reference compound]",
    "Relative content (% of mean Control)": "44.3038 % of mean Control"
  },
  {
    "compound": "O=C[C@H](O)COP(=O)(O)O [GAP, D-glyceraldehyde-3-phosphate]",
    "Relative content (% of mean Control)": "48.3557 % of mean Control"
  },
  {
    "compound": "Cc1cc2nc3c(=O)[nH]c(=O)nc-3n(C[C@H](O)[C@H](O)[C@H](O)COP(=O)(O)OP(=O)(O)OC[C@H]3O[C@@H](n4cnc5c(N)ncnc54)[C@H](O)[C@@H]3O)c2cc1C",
    "Relative content (% of mean Control)": "46.1734 % of mean Control"
  }
]
